Cited source for all entries: patent US11214803B2

Test system: Yap1 mRNA
test-name: Dose-dependent inhibition of human Yap1 in A-431 cells (Example 8, 10,000 cells per well, RTS4814)
Assay type: cell-based
test-parameters: 125.0 nM; A-431 cells
Strand notation (5' to 3'): a small letter for the sugar, then the base; units joined by * are phosphorothioate-linked, units joined directly phosphodiester-linked; [ ] holds rarer units or linkages, { } end groups; capitals alone tell only the bases. k = constrained ethyl (cEt); [5mC] = 5-methylcytosine; d = 2'-deoxy (DNA)
The entries below come with measured % UTC (Yap1 mRNA) values attached.
Give the number; % UTC is assumed, so skip it.

> print(dat)
                                  substance        result.type  result.value
1  1074549 (DNA kT*kA*kT*d[5mC]*dT*dA*d[5mC]*d[5mC]*dG*dT*dA*dT*dG*k[5mC]*k[5mC]*k[5mC]; antisense) [compound 1074549]  % UTC (Yap1 mRNA)            31

# input So what's the measured % UTC (Yap1 mRNA) for this one? 1076183 (k[5mC]*kT*kT*d[5mC]*dT*dA*dT*dA*dA*dT*dT*dA*dG*k[5mC]*k[5mC]*kA; antisense) [compound 1076183]
# output 22

# input So what's the measured % UTC (Yap1 mRNA) for this one? 1076439 (k[5mC]*kT*kT*dA*dT*dA*dT*dG*dG*dT*dT*dT*dT*kG*kT*kG) [compound 1076439]
# output 13

* * *

test-name: Tolerability in Balb/c mice, plasma chemistry markers (Example 10)
Format: in vivo
test-parameters: male Balb/c mice, 50 mg/kg subcutaneously twice a week for four weeks, day 26
Strand notation (5' to 3'): a small letter for the sugar, then the base; units joined by * are phosphorothioate-linked, units joined directly phosphodiester-linked; [ ] holds rarer units or linkages, { } end groups; capitals alone tell only the bases. k = constrained ethyl (cEt); [5mC] = 5-methylcytosine; d = 2'-deoxy (DNA)
result-type: ALT (U/L)
Give the number; U/L is assumed, so skip it.

# input So what's the measured ALT (U/L) for this one? 715491 (kA*kA*k[5mC]*d[5mC]*dA*dA*d[5mC]*dT*dA*dT*dT*dA*d[5mC]*kT*kT*k[5mC]) [compound 715491]
# output 33

# input So what's the measured ALT (U/L) for this one? 715558 (k[5mC]*kA*kG*dG*dA*dA*dG*dT*dT*dA*dT*dT*d[5mC]*kA*kG*k[5mC]; antisense) [compound 715558]
# output 65

# input So what's the measured ALT (U/L) for this one? 715480 (kG*kG*kA*dA*dA*d[5mC]*d[5mC]*dA*dT*dT*dA*dT*dT*kA*k[5mC]*kT; antisense) [compound 715480]
# output 791

* * *

System: Yap1 mRNA
test-name: Antisense inhibition of human Yap1 in A-431 cells by cEt gapmers, single dose (Example 4, RTS4814)
Type: cell-based
test-parameters: Yap1 mRNA remaining as percent of untreated control; 3-10-3 cEt gapmers; A-431 cells; Table 36
Description: Modified oligonucleotides were designed to target a Yap1 nucleic acid and were tested for their effect on Yap1 mRNA level in vitro. The modified oligonucleotides were tested in a series of experiments that had similar culture conditions. […] After a treatment period of approximately 48 hours, RNA was isolated from the cells and Yap1 mRNA levels were measured by quantitative real-time RTPCR. […] Yap1 mRNA levels were normalized to total RNA content, as measured by RIBOGREEN®. […]
Strand notation (5' to 3'): a small letter for the sugar, then the base; units joined by * are phosphorothioate-linked, units joined directly phosphodiester-linked; [ ] holds rarer units or linkages, { } end groups; capitals alone tell only the bases. k = constrained ethyl (cEt); [5mC] = 5-methylcytosine; d = 2'-deoxy (DNA)
The entries below come with measured YAP1 (% UTC) values attached.
Give the number; % UTC is assumed, so skip it.

Worked examples follow.
substance	result-type	result-value
1074454 (kT*kG*kT*dG*dA*d[5mC]*dT*dA*dA*dT*dG*dA*dT*kA*kG*k[5mC]; antisense) [compound 1074454]	YAP1 (% UTC)	1
1074486 (kA*kT*kT*d[5mC]*dA*d[5mC]*dT*dA*dA*dT*dA*dT*dG*kG*kT*k[5mC]; antisense) [compound 1074486]	YAP1 (% UTC)	4
1075158 (k[5mC]*kG*kG*d[5mC]*dA*dA*dA*dA*dA*d[5mC]*dA*dA*dA*kA*kT*k[5mC]; antisense) [compound 1075158]	YAP1 (% UTC)	76

# input So what's the measured YAP1 (% UTC) for this one? 1076150 (kA*kT*kT*dT*dA*dT*dT*dA*dA*d[5mC]*dT*d[5mC]*dA*k[5mC]*kG*kA; antisense) [compound 1076150]
# output 11

# input So what's the measured YAP1 (% UTC) for this one? 1075510 (kG*kA*kA*dT*dA*dA*d[5mC]*dA*d[5mC]*dA*dT*dA*dA*kT*k[5mC]*k[5mC]; antisense) [compound 1075510]
# output 83

# input So what's the measured YAP1 (% UTC) for this one? 1076534 (kA*k[5mC]*kT*dA*dT*dA*dA*dA*dG*d[5mC]*dA*dA*dT*kG*k[5mC]*kG; antisense) [compound 1076534]
# output 4
